- MEASURED_ON: UniProt:P30542
- Sequence (P30542 whole entry): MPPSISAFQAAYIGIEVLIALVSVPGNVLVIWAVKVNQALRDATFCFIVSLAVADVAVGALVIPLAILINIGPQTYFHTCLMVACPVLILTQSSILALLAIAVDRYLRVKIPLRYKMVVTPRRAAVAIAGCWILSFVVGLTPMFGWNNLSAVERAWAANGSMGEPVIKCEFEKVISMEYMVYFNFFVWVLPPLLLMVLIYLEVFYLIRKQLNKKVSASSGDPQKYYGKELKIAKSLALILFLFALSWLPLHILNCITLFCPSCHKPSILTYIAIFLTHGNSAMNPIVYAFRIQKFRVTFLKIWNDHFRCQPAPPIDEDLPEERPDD
- Format: cell membranes, CHO, Membrane
- PROTOCOL_CONDITIONS: read-out: Ki; further: in other assays of this panel Not Active means under 50% inhibition at 10 µM
METRIC: Ki (µM)
The response must be a number in µM with no trailing unit.

Request: Ki, test system UniProt:P30542, entry "CN(CCOc1ccc(C[C@H](Nc2ccccc2C(=O)c2ccccc2)C(=O)O)cc1)c1ccccn1"
8.73

----------
- MEASURED_ON: Cholecystokinin receptor type A (Homo sapiens, UniProt P32238)
- Sequence (P32238 whole entry): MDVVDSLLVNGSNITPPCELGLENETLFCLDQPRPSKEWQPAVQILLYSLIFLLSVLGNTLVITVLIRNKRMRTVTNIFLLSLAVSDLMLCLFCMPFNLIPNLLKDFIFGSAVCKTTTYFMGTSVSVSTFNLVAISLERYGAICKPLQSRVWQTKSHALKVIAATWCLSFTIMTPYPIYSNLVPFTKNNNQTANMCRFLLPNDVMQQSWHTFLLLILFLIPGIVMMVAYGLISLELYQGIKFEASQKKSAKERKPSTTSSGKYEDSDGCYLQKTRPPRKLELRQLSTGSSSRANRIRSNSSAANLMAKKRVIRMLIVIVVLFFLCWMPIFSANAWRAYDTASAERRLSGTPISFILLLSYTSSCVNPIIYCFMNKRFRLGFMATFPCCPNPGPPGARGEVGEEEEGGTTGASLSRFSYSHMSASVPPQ
- Type: cell membranes, Membrane
- PROTOCOL_CONDITIONS: 1321-n1
METRIC: IC50

NC(=O)CN1CCCC1=O :: Not Active
Cl.NC[C@H]1CC[C@H](C(=O)Oc2ccc(CCC(=O)O)cc2)CC1 [CETRAXATE HYDROCHLORIDE] :: Not Active
C[C@H](C(=O)O)c1ccc2oc(-c3ccc(F)cc3)nc2c1 :: Not Active
C[C@]12CCC(=O)C[C@@H]1CC[C@@H]1[C@@H]2CC[C@]2(C)[C@@H](O)CC[C@@H]12 :: Not Active
O=C1c2ccccc2C(=O)C1c1ccccc1 :: Not Active

Field request: IC50 | item: CC(C)NCC(O)COc1ccc(CC(N)=O)cc1 (centres undefined)
Not Active

Please report the recorded IC50 for "CC(=O)[C@]1(O)Cc2c(O)c3c(c(O)c2[C@@H](O[C@H]2C[C@H](N)[C@H](O)[C@H](C)O2)C1)C(=O)c1ccccc1C3=O" .
Not Active

What does the record list as IC50 for "O=C(O)c1ccccc1" ?
Not Active

I have this molecule here, "O=C(O)c1cc(/N=N/c2ccc(S(=O)(=O)Nc3ccccn3)cc2)ccc1O" , and I need its recorded IC50.
Not Active

----------
- MEASURED_ON: C-C chemokine receptor type 5 (Homo sapiens, UniProt P51681)
- Sequence (P51681 whole entry): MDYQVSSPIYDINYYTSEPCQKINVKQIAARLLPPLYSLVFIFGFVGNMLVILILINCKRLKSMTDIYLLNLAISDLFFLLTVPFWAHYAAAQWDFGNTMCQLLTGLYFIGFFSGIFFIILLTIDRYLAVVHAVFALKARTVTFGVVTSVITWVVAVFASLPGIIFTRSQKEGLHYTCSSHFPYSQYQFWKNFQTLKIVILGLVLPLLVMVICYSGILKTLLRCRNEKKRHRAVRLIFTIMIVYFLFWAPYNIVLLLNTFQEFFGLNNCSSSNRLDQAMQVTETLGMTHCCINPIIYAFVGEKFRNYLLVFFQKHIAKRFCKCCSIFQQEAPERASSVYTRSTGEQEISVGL
- Type: cell membranes, HEK293, Membrane
- PROTOCOL_CONDITIONS: hek293
METRIC: IC50

NS(=O)(=O)c1cc(C(=O)O)c(NCc2ccco2)cc1Cl [FUROSEMIDE] :: Not Active
CCC(C)(C)C(=O)O[C@H]1C[C@@H](C)C=C2C=C[C@H](C)[C@H](CC[C@@H]3C[C@@H](O)CC(=O)O3)[C@H]21 :: Not Active
OC[C@H]1O[C@@H]2O[C@H]3[C@H](O)[C@@H](O)[C@@H](O[C@H]4[C@H](O)[C@@H](O)[C@@H](O[C@H]5[C@H](O)[C@@H](O)[C@@H](O[C@H]6[C@H](O)[C@@H](O)[C@@H](O[C@H]7[C@H](O)[C@@H](O)[C@@H](O[C@H]1[C@H](O)[C@H]2O)O[C@@H]7CO)O[C@@H]6CO)O[C@@H]5CO)O[C@@H]4CO)O[C@@H]3CO :: Not Active
c1ccc(Cn2ccnc2)cc1 :: Not Active
CC[C@H](C)[C@@H](CO[C@@H](Cc1ccccc1)C(=O)N[C@@H](CCS(C)(=O)=O)C(=O)OC(C)C)NC[C@@H](N)CS :: Not Active

# get_value(readout='IC50', item= "C[C@H](C(=O)O)c1ccc2oc(-c3ccc(F)cc3)nc2c1" )
Not Active
